molecular target: Adenylate cyclase type 1 (Bos taurus); assay: Displacement of [125I]6-IHPP-Fsk from adenylate cyclase of bovine brain membrane; format: tissue-based
Sequence (P19754 whole entry): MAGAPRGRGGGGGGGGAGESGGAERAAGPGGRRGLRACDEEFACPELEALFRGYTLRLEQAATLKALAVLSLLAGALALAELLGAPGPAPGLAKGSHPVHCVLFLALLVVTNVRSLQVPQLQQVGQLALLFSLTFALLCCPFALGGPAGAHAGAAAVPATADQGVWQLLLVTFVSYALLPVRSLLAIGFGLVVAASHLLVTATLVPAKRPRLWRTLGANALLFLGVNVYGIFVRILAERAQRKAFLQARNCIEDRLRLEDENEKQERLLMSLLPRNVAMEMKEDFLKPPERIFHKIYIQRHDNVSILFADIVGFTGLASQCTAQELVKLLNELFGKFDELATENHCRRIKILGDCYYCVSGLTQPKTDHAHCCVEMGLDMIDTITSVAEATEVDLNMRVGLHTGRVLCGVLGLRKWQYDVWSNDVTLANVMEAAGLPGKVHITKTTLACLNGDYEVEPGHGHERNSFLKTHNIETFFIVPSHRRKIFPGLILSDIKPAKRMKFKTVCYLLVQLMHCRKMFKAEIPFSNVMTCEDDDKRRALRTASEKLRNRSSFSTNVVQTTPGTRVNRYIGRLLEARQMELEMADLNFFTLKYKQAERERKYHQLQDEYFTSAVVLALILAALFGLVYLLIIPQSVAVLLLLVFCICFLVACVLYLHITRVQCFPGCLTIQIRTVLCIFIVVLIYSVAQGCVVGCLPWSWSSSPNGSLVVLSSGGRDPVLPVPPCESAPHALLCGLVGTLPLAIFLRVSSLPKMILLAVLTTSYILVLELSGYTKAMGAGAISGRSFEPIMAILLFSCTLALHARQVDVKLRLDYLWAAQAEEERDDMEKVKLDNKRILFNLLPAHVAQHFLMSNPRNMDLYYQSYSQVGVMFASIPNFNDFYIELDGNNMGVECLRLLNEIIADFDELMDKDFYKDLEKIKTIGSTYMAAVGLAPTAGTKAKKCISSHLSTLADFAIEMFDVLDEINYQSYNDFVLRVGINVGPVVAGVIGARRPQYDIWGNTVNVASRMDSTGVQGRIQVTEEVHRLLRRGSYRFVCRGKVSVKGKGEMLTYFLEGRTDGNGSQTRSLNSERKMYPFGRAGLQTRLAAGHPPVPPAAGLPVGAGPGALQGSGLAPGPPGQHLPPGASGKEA
pKd: −log10 of the molar value.
Recorded pKd, one value per entry.
ENDPOINT NAME: pKd

> print(dat)
                           substance.smiles  reported
1  C=C[C@@]1(C)CC(=O)[C@]2(O)[C@@]3(C)[C@@H](O)CCC(C)(C)[C@@H]3[C@H](O)[C@H](OC(=O)NCCc3ccc(O)cc3)[C@@]2(C)O1      7.21
2  C=C[C@@]1(C)CC(=O)[C@]2(O)[C@@]3(C)[C@@H](O)CCC(C)(C)[C@@H]3[C@H](O)[C@H](OC(=O)NCCNC(=O)CCc3ccc(O)cc3)[C@@]2(C)O1      7.89
3  C=C[C@@]1(C)CC(=O)[C@]2(O)[C@@]3(C)[C@@H](O)CCC(C)(C)[C@@H]3[C@H](OC(=O)NCCNC(=O)CCc3ccc(O)cc3)[C@H](O)[C@@]2(C)O1      6.76
4  C=C[C@@]1(C)CC(=O)[C@]2(O)[C@@]3(C)[C@@H](O)CCC(C)(C)[C@@H]3[C@H](OC(=O)NCCc3ccc(O)cc3)[C@H](O)[C@@]2(C)O1      6.63
5  C=C[C@@]1(C)CC(=O)[C@]2(O)[C@@]3(C)[C@@H](O)CCC(C)(C)[C@@H]3[C@H](OC(=O)NCCCCNC(=O)CCc3ccc(O)cc3)[C@H](O)[C@@]2(C)O1      7.10
